- tested.system: histamine (Cavia porcellus, UniProt P31389)
- Construct: from tissue
- Sequence (P31389 whole entry): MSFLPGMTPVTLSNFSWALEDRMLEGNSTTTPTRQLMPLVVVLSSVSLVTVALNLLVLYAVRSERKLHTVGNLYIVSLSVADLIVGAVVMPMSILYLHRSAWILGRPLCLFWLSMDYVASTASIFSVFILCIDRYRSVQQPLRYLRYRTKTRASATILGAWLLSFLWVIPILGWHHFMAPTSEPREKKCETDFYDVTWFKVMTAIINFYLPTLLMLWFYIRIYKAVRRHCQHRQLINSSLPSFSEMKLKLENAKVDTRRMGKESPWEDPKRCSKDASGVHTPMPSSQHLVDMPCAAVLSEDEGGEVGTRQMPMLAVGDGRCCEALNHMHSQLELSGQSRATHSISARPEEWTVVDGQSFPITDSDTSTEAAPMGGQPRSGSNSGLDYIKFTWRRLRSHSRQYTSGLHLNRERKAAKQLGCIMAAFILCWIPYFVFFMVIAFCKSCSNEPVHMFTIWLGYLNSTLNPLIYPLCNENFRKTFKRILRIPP
- test.protocol: Antihistamine activity by the method of Alps et al.
- run.parameters: result in words
observed.property: antihistamine activity

INSERT INTO assay_data (molecule, measured_result) VALUES
  ('O=C(NC1CCN(CCCCc2ccc(F)cc2)CC1)c1ccccc1 [Example 40]', 'anti-histamine activity'),
  ('O=C(NC1CCN(CCc2c[nH]cn2)CC1)c1ccccc1 [Example 96]', 'anti-histamine activity');

---

- test.protocol: Acute toxicity (LD50) in the mouse
- run.parameters: in vivo, ip
observed.property: LD50 at 24 h

INSERT INTO assay_data (smiles_repr, measured_result) VALUES
  ('O=C(CCCN1CCC(NC(=O)c2ccccc2)CC1)c1ccc(O)cc1', '> 4000 mg/kg');
